# procedure_text: stimulators of insulin release from INS-1E, primary screen, cell-based, 5 mM glucose, NPC library (AID 1117329); also: reference of the scale not given here
# test_parameters: rat INS-1E insulin secretion, at 10 µM
Calls of active or inactive are those of the source.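 The calls were made as follows: active = compound raises insulin release from rat beta cells at 5 mM glucose, no numeric limit stated; inactive = the rest.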
API: response.call in Y = active, N = inactive

Consider the worked cases shown below.
molecule: CCN(CC)CCNC(=O)c1ccc(NC(C)=O)cc1
discrete_label: N

molecule: C/C=C(/C(=C/C)c1ccc(O)cc1)c1ccc(O)cc1
discrete_label: N

molecule: CN1C(C)(C)CCCC1(C)C
discrete_label: N

molecule: CO[C@@]1(NC(=O)CSCC#N)C(=O)N2C(C(=O)O)=C(CSc3nnnn3C)CS[C@@H]21
discrete_label: N

molecule: NCCCC[C@H](N[C@@H](CCc1ccccc1)C(=O)O)C(=O)N1CCC[C@H]1C(=O)O
discrete_label: N

molecule: Nc1ccc(C(=O)O)c(O)c1
discrete_label: N

molecule: COC1=C(OC)C(=O)C(CCCCCCCCCCO)=C(C)C1=O
discrete_label: N

molecule: CCCC(C(=O)OCCN(CC)CC)(c1ccccc1)c1ccccc1
discrete_label: N

**Q:** Fill in: this test's call for Cc1cc(C(C)(C)C)c(O)c(C)c1CC1=NCCN1 is ___
**A:** N

**Q:** Fill in: this test's call for CC(C)c1nc(CN(C)C(=O)N[C@H](C(=O)N[C@@H](Cc2ccccc2)C[C@H](O)[C@H](Cc2ccccc2)NC(=O)OCc2cncs2)C(C)C)cs1 is ___
**A:** N

**Q:** Fill in: this test's call for CN(CCCN1c2ccccc2CCc2ccccc21)CC(=O)c1ccc(Cl)cc1 is ___
**A:** N

**Q:** Fill in: this test's call for COc1cc(C(=O)OCCCN2CCCN(CCCOC(=O)c3cc(OC)c(OC)c(OC)c3)CC2)cc(OC)c1OC is ___
**A:** Y

**Q:** Fill in: this test's call for Nc1ccc(S(=O)(=O)Nc2ccccn2)cc1 is ___
**A:** N

**Q:** Fill in: this test's call for CN1[C@@H]2CC[C@H]1CC(OC(=O)C(O)c1ccccc1)C2 (some centres not stated) is ___
**A:** N

**Q:** Fill in: this test's call for Cc1nc2sccn2c(=O)c1CCN1CCC(=C(c2ccc(F)cc2)c2ccc(F)cc2)CC1 is ___
**A:** N

**Q:** Fill in: this test's call for N=C(N)N is ___
**A:** N

**Q:** Fill in: this test's call for COc1cc(N)c(Cl)cc1C(=O)NC1CCN(Cc2ccccc2)CC1 is ___
**A:** N

**Q:** Fill in: this test's call for Oc1cccc2[nH]ccc12 is ___
**A:** N

**Q:** Fill in: this test's call for CN1CCCN=C1COC(=O)C(O)(c1ccccc1)C1CCCCC1 (configuration not stated) is ___
**A:** N

**Q:** Fill in: this test's call for Cc1cc(-c2ccccc2)nnc1NCCN1CCOCC1 is ___
**A:** N

**Q:** Fill in: this test's call for CCCc1cc(C(N)=S)ccn1 is ___
**A:** N
